# Tested on: rice
# TEST_METHOD_NOTES: Low temperature assay on rice seedlings
# Assay type: in vivo
# MEASUREMENT_PARAMETERS: 0.001 mg/l, 3 °C, 9 days
# Text: According to a low temperature assay, we measured parameters including plant height, number of leaf, area of leaf, number of tiller, weight of root at low temperature to completely determine effects of the natural brassinolide analogues on the resistance to low temperature of a plant. The natural brassinolide analogues, BR1, BR2, BR3, BR4, BR5 and BR6, used herein, were those prepared by the method of Example 1. […]
OBSERVATION_TYPE: Area of leaf

Inquiry: Give recorded Area of leaf with rice for the following compound: C=C(C(C)C)[C@@H](O)[C@H](O)[C@@H](C)[C@H]1CCC2C3COC(=O)C4C[C@H](O)[C@H](O)C[C@]4(C)C3CC[C@@]21C (stereo partly drawn)
Reply text: 12.2 cm^2

Inquiry: Give recorded Area of leaf with rice for the following compound: CC(C)[C@H](C)[C@@H](O)[C@H](O)[C@@H](C)[C@H]1CCC2C3COC(=O)C4C[C@H](O)[C@H](O)C[C@]4(C)C3CC[C@@]21C (stereo partly drawn)
Reply text: 12.6 cm^2

Inquiry: Give recorded Area of leaf with rice for the following compound: CC(C)C[C@@H](O)[C@H](O)[C@@H](C)[C@H]1CCC2C3CC(=O)C4C[C@H](O)[C@H](O)C[C@]4(C)C3CC[C@@]21C (stereo partly drawn)
Reply text: 12.4 cm^2

----------
What Area of leaf was measured for each of the following?
# System: rice
# TEST_METHOD_NOTES: Low temperature assay on rice seedlings
# Type: in vivo
# MEASUREMENT_PARAMETERS: 0.01 mg/l, 5 °C, 3 days
Write the number in cm^2 without appending the unit.

Inquiry: Give recorded Area of leaf with rice for the following molecule: CC(C)[C@H](C)[C@@H](O)[C@H](O)[C@@H](C)[C@H]1CCC2C3CC(=O)C4C[C@H](O)CC[C@]4(C)C3CC[C@@]21C (stereo partly drawn) [BR4]
Reply text: 10.3

Inquiry: Give recorded Area of leaf with rice for the following molecule: CC[C@@H](C(C)C)[C@@H](O)[C@H](O)[C@@H](C)[C@H]1CCC2C3COC(=O)C4C[C@H](O)[C@H](O)C[C@]4(C)C3CC[C@@]21C (stereo partly drawn) [BR2]
Reply text: 10.3

Inquiry: Give recorded Area of leaf with rice for the following molecule: CC(C)(O)CC[C@@H](O)[C@](C)(O)[C@H]1CC[C@@]2(O)[C@@H]3CC(=O)[C@@H]4C[C@@H](O)[C@@H](O)C[C@]4(C)[C@H]3CC[C@]12C [BR6]
Reply text: 10.9

Inquiry: Give recorded Area of leaf with rice for the following molecule: CC(C)C[C@@H](O)[C@H](O)[C@@H](C)[C@H]1CCC2C3CC(=O)C4C[C@H](O)[C@H](O)C[C@]4(C)C3CC[C@@]21C (stereo partly drawn) [BR5]
Reply text: 10.3

Inquiry: Give recorded Area of leaf with rice for the following molecule: CC(C)[C@H](C)[C@@H](O)[C@H](O)[C@@H](C)[C@H]1CCC2C3COC(=O)C4C[C@H](O)[C@H](O)C[C@]4(C)C3CC[C@@]21C (stereo partly drawn) [BR1]
Reply text: 10.9

Inquiry: Give recorded Area of leaf with rice for the following molecule: C=C(C(C)C)[C@@H](O)[C@H](O)[C@@H](C)[C@H]1CCC2C3COC(=O)C4C[C@H](O)[C@H](O)C[C@]4(C)C3CC[C@@]21C (stereo partly drawn) [BR3]
Reply text: 10.3
